// data source = patent US20220106391A1

# testedSystem: T1, canine beta-NGF (cNGF) (canine, UniProt Q29074 110-229 (pig entry))
# T1 construct: also called canine NGF; can NGF
# T1 chain: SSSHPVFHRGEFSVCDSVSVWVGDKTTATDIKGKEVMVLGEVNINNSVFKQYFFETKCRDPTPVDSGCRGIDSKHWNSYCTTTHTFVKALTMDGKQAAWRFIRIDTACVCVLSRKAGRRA
# protocolSummary: SPR (Biacore), cNGF binding; KD column of Table 7
Checkbox rule: Kd lower than 0.7 nM = Criterion met; Kd not lower than 0.7 nM = Criterion not met.

Please determine if 182m75 (antibody, V domains shown, 51 except in CDR2 (TSSLHV); 51 (CDR2 Pos. 1-6 = residues 51-56); also called Can-182-m75) VH: EVQLVESGGDLARPGGSLKLSCVVSGFTLTQYGINWVRQAPGKGLQWVTVIWATGATDYNSALKSRFTVSRDNAMNTVYLQMNSLRVEDTAVYYCARDGWWYATSWYFDVWGQGTLVTVSS VL: DIVMTQTPLSLSVSPGEPASISCKASQDINHYLNWFRQKPDGTVKLLIYYTSSLHVGVPSRFSGSGSGTDFTLRISRVEADDAGVYYCQQGDHFPRTFGQGT is below 0.7 nM in terms of Kd.
Criterion not met

Please do the same for 182m72 (antibody, V domains shown, 51 except in CDR2 (TSSLHQ); 51 (CDR2 Pos. 1-6 = residues 51-56); also called Can-182-m72) VH: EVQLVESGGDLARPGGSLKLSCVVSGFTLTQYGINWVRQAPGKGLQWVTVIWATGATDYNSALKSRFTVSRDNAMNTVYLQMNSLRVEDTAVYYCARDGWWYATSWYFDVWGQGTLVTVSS VL: DIVMTQTPLSLSVSPGEPASISCKASQDINHYLNWFRQKPDGTVKLLIYYTSSLHQGVPSRFSGSGSGTDFTLRISRVEADDAGVYYCQQGDHFPRTFGQGT as well.
Criterion met

Similarly, 182m70 (antibody, V domains shown, 51 except in CDR2 (TSSLHG); 51 (CDR2 Pos. 1-6 = residues 51-56); also called Can-182-m70) VH: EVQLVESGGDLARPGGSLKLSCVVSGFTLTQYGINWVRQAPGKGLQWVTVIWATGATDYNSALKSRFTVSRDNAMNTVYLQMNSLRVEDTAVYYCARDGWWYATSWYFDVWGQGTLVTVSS VL: DIVMTQTPLSLSVSPGEPASISCKASQDINHYLNWFRQKPDGTVKLLIYYTSSLHGGVPSRFSGSGSGTDFTLRISRVEADDAGVYYCQQGDHFPRTFGQGT ?
Criterion not met

Another binder to check: 182m43 (antibody, V domains shown, 51 except in CDR2 (THSLHN); 51 as printed; also called Can-182-m43) VH: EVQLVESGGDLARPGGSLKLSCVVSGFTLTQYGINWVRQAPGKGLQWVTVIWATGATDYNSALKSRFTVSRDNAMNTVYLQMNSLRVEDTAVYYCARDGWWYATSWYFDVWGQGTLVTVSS VL: DIVMTQTPLSLSVSPGEPASISCKASQDINHYLNWFRQKPDGTVKLLIYYTHSLHNGVPSRFSGSGSGTDFTLRISRVEADDAGVYYCQQGDHFPRTFGQGT
Criterion not met

Entry H3AQC2301B12L1AL1L3 (ZTS-00103182) (antibody, V domains shown, Caninized IgG; 49 as printed runs on into CH1; the VL entry stops at FGQGT; also called ZTS-182; wt 182) VH: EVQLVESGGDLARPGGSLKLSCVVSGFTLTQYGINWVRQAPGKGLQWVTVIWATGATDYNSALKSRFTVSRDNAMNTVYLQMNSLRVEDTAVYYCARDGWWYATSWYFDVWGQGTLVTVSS VL: DIVMTQTPLSLSVSPGEPASISCKASQDINHYLNWFRQKPDGTVKLLIYYTSRLHSGVPSRFSGSGSGTDFTLRISRVEADDAGVYYCQQGDHFPRTFGQGT please
Criterion met
